The measurements presented in this section are drawn from PubChem BioAssay (NCI).

Below, each of the molecules is paired with its reported growth inhibition value.
- Procedure summary: NCI Yeast Anticancer Drug Screen. Data for the rad50 strain (AID 155);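 note: 0% = growth of vehicle-only cultures of the same strain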
- Condition info: S. cerevisiae rad50 strain growth inhibition; at 50.0 µM; stronger effect = higher value
The panel holds about 79,000 compounds, 15% with a hit somewhere; the sample as a whole holds those more often.
The answer is to be given in %; state only the numeric part.

CSc1cccc(NC(=S)NN/C(=N/S(=O)(=O)c2ccccc2)N2CCCC2)c1 = 6.3
CC1=N/C(=C/c2ccccc2)C(=O)O1 = 7.6
O=C(Nc1ccccc1)c1ccc(I)cc1 = 7.05
CC(=O)NC(CCc1ccccc1)C(=O)O (centres undefined) = 16.1
O=C(O)Cc1ccccc1C(=O)O = 12.9
CCN(CC)c1nc(N(CC)CC)nc(N(CC)CC)n1 = -1

Req: Quick check: growth inhibition of `CC(=O)Oc1ccccc1C(=O)OC(=O)c1ccccc1OC(C)=O` ?
Resp: 5.3

Req: Item under review: `Cc1ccc2occ(/C=N/NC(N)=S)c(=O)c2c1` . Reported growth inhibition?
Resp: -11.4

Req: Please look up its growth inhibition: `CN(C)CCSS(=O)(=O)O`
Resp: -4.9

Req: So what does the record say about growth inhibition for O=C(NC1CCC(CC2CCCCC2)CC1)c1ccccc1 (centres undefined) ?
Resp: -14.7

Req: Please report the recorded growth inhibition for `COc1ccc(NC(=O)NCc2ccc(C)cc2)cc1` .
Resp: 4.45

Req: Requested field: growth inhibition. Item: CCOC(=O)CCCC(NC(=O)c1ccc(N2CCN(c3c(N)nc(N)nc3NC)CC2)cc1)C(=O)OCC (centres undefined)
Resp: 9.95

Req: Endpoint output: growth inhibition of `CC1=C(C(=O)CC(=O)C(=O)Nc2ccc(Cl)cc2Cl)Sc2ccccc2N1` . Value?
Resp: -5.65

Req: Which growth inhibition is reported for this molecule? `N#Cc1c(=O)[nH]c(=O)n2c1[nH]c1ccccc12`
Resp: 14.7

====

- Procedure summary: NCI Yeast Anticancer Drug Screen. Data for the rad50 strain (AID 155);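 note: 0% = growth of vehicle-only cultures of the same strain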
- Condition info: S. cerevisiae rad50 strain growth inhibition; at 50.0 µM; stronger effect = higher value
The panel holds about 79,000 compounds, 15% with a hit somewhere; the sample as a whole holds those more often. Where a SMILES comes first, the peptide text is derived from it. The star is where a group is joined. OtBu = CC(C)(C)O*
Value kind: growth inhibition (%)
Write the answer as a number in %, unit excluded.

Cc1ccc([N+](=O)[O-])cc1NC(=O)COc1ccc(Cl)cc1Cl = 6.25
CC(C)CC(NC(=O)C1CCCN1)C(=O)NC(CC(C)C)C(=O)OC(C)(C)C (stereo not drawn) (H-Pro-Leu-Leu-OtBu; configuration not given here) = 30.2
O=NN(CCCl)C(=O)NC1CCC(CC2CCC(NC(=O)N(CCCl)N=O)CC2)CC1 (stereo not given) = 24.9

Req: May I ask what growth inhibition has been recorded for `COc1ccc(C2=C(Cl)c3cc(OC)c(OC)cc3C2=O)cc1OC` ?
Resp: 0.75

Req: Entry under review: CC(C)CCCC(C)C1CCC2C3CC=C4CC(OC(=O)C56C=CC(=O)C5C5C=CC6CC5)CCC4(C)C3CCC12C (stereo not given) . Reported growth inhibition?
Resp: 11.4

Req: Data request, read-out growth inhibition, for `OCCNNCCO`
Resp: 13.3

Req: Which growth inhibition value is on record for CCOC(=O)C(=O)C1CCCC(C)C1=O (stereo not given) ?
Resp: 16

Req: Quick one: growth inhibition for `CN=C1SC(C)(C)NN1C` ?
Resp: 9.2

Req: Record request: growth inhibition value, item Cc1ccccc1N1C(=O)C2CC=CCC2C1=O (stereo not given)
Resp: -13.3

Req: Fill in: growth inhibition of `NC1=NN(c2ccccc2)C(=O)/C1=C\n1c(=S)[nH]c2ccccc21` is ___
Resp: -22.4

Req: I have this compound here, `Cc1cc([N+](=O)[O-])ccc1NS(=O)(=O)c1ccccc1` , and I need its recorded growth inhibition.
Resp: 24.9

Req: Sample `COc1ccc2c(c1)OC[C@@H]1c3cc(O)c(OCc4ccccc4)cc3O[C@]21C` — what was its growth inhibition?
Resp: 9.9

Req: Please look up its growth inhibition: `C#CCN`
Resp: 9.25

Req: Request the reported growth inhibition associated with `c1ccc(CNc2ncncc2-c2ccccc2)cc1`
Resp: 2.75

Req: Quick one: growth inhibition of `CC/C=C\CCCCC` ?
Resp: 0.4

Req: # input compound: CCOC(=O)C(N)CSSCC(N)C(=O)OCC (stereo not given) ; wanted: its growth inhibition
Resp: 5.55

====

Reported growth inhibition by item:
- Procedure summary: NCI Yeast Anticancer Drug Screen. Data for the rad50 strain (AID 155);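 note: 0% = growth of vehicle-only cultures of the same strain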
- Condition info: S. cerevisiae rad50 strain growth inhibition; at 50.0 µM; stronger effect = higher value
This is part of a sample that, as a whole, favours compounds with a hit. Of some 79,000 tested, about 15% had one in any assay.
// return numeric value only (unit: %, not printed)

Cc1ccccc1NC=O = -26

We next turn to a different compound, shown below.
Req: Request the reported growth inhibition associated with CCCCCCC(=O)C(N)Cc1ccccc1 (centres undefined)
Resp: 0.45

====

- Procedure summary: NCI Yeast Anticancer Drug Screen. Data for the mec2-1 strain (AID 157)
- Condition info: S. cerevisiae mec2-1 strain, at 50.0 µM, stronger effect = higher value
About 79,000 compounds went through this panel and 15% of them were active in at least one assay; those are over-represented in the sample as a whole.
Listed below: growth inhibition values for each entry.
Write the value in % as a bare number.

Reference set, count: 3
COc1ccc(-c2nnc(-c3ccc(OC)cc3)nn2)cc1 = 15.7
CCOC(=O)C1Sc2c(c(=O)n(C)c3ccccc23)C1=O (stereo not drawn) = 36.6
O=C1CCC(=O)C(C(=O)CCC(=O)Nc2cccc(Cl)c2)C1 (stereo not drawn) = -6.5

Req: What value of growth inhibition has been recorded for this entry: `Cc1ccc(N=Nc2sc(N)nc2-c2ccc(Cl)cc2)cc1`
Resp: -2.55

Req: Requested read-out: growth inhibition. Entry: CCOC(=O)CCC(N)C(N)=O (stereo not drawn)
Resp: -6.45

Req: GET /values?readout=growth inhibition&item= `Cc1ccc(C(=N)c2ccccc2Cc2cccc3ccccc23)c2ccccc12`
Resp: -22.1

Req: What does the record list as growth inhibition for `CC(C)C(=O)C(C)(C)CCc1ccccn1` ?
Resp: -24.8

Req: Which value of growth inhibition has been reported for `Cn1c(Cc2ccccc2)c([N+](=O)[O-])c(=O)n(C)c1=O` in the records?
Resp: -5.25

Req: Reported growth inhibition, compound `O=c1c2cnc3cc(Cl)ccc3c2[nH]n1-c1ccc(Cl)cc1` : ____
Resp: 0.45

Req: So what's the measured growth inhibition for this one? CCCCCCCCCOCC(COP(=O)([O-])OCC[N+](C)(C)C)OC (stereo not drawn)
Resp: 13.3

Req: What does the data say about its growth inhibition? Entry: CN(C)S(=O)(=O)C(C(=O)Nc1ccccc1)c1ccccc1 (stereo not drawn)
Resp: 13.8

Req: Which value of growth inhibition has been reported for `O=C(C(=O)c1cccc(Cl)c1)c1ccccc1` in the records?
Resp: 24.6

Req: # lookup: growth inhibition of `CCOC(=O)C(C(=O)OCC)C(=O)C(C)(C)C`
Resp: 0.3

Req: If you can, please state the reported growth inhibition value of `O=c1c2ccccc2oc2cc3c(c(O)c12)CCCC3` .
Resp: -13.9

Req: Quick one: growth inhibition for `NC(=O)N/N=C/c1ccc2c(c1)OCO2` ?
Resp: -7.9

Req: # growth inhibition lookup, item COC(=O)C(CC(=O)c1ccc2ccccc2c1)OC (stereo not drawn)
Resp: -9.1

Req: Suppose we examine the compound `CCOC(=O)c1c(C)c(C)n2c1NC(=O)C2` ; what growth inhibition value has been reported?
Resp: -4.6

====

- Procedure summary: NCI Yeast Anticancer Drug Screen. Data for the mec2-1 strain (AID 157)
- Condition info: S. cerevisiae mec2-1 strain, at 50.0 µM, stronger effect = higher value
This is part of a sample that, as a whole, favours compounds with a hit. Of some 79,000 tested, about 15% had one in any assay.
Value kind: growth inhibition (%)
Note: unit % is implicit; provide only the numeric part.

Use the examples below as a reference point.
CN(C)CC(O)C(=O)O (configuration not stated) = 20.4
CCOC(=O)C1=C(C(=O)C(C)(C)C)C(c2ccc([N+](=O)[O-])cc2)C(C(=O)C(C)(C)C)=C(C(=O)OCC)N1 = 21.4
CCOC(=O)C1=C(C(C)=O)C(c2cccc([N+](=O)[O-])c2)C(C(C)=O)=C(C(=O)OCC)N1 = 4.05
CC(=O)Nc1ccc(S(=O)(=O)Nc2c(-c3ccccc3)[nH]c(C)c2C(C)=O)cc1 = 7.85
O=C(O)c1cc2ccccc2c(N=Nc2cc(C(F)(F)F)ccc2Cl)c1O = -9.65

Req: Please give the measured growth inhibition for this molecule: `O=[N+]([O-])CC1(O)CCCCC1`
Resp: 9.05

Req: I am curious: what growth inhibition value has been reported for `CN(C)CCCN(c1nc2cc(Cl)ccc2o1)c1nc2cc(Cl)ccc2o1` ?
Resp: 17.1

Req: I am curious: what growth inhibition value has been reported for `COc1ccc(-c2nnc3n(C)c4ccccc4n3c2=O)cc1` ?
Resp: 8.55

Req: Endpoint output: growth inhibition of `CCOC(=O)Nc1ccc(S(=O)(=O)c2ccc(Nc3ccnc4cc(Cl)ccc34)cc2)cc1` . Value?
Resp: 10.2

Req: May I ask what growth inhibition has been recorded for `Cc1cccc[n+]1CC(=O)c1ccccc1[N+](=O)[O-]` ?
Resp: 6.85
